Assay: Half life in C57BL/6 mouse 10 mg/kg, iv measured upto 24 hrs
Type: ADME, organism-based
Conditions: in vivo
PROPERTY_NAME: half-life (h)
One number for each entry, in h.

Challenge: Given the compound CCCCCCCCCCCCC/C=C/[C@@H](O)[C@H](CO[C@@H]1O[C@H](CO)[C@@H](O[C@@H]2O[C@H](CO)[C@H](O)[C@H](O[C@]3(C(=O)O)C[C@H](O)[C@@H](NC(=O)c4cccc(I)c4)[C@H]([C@H](O)[C@H](O)CO)O3)[C@H]2O)[C@H](O)[C@H]1O)NC(=O)CCCCCCCCCCCCCCCCC , what is its reported half-life?
Response given: 56.8
